Target: T1, EsCas13d, nuclease-dead (Eubacterium siraeum, UniProt B0MS50, R295A;H300A;R849A;H854A)
T1 sequence: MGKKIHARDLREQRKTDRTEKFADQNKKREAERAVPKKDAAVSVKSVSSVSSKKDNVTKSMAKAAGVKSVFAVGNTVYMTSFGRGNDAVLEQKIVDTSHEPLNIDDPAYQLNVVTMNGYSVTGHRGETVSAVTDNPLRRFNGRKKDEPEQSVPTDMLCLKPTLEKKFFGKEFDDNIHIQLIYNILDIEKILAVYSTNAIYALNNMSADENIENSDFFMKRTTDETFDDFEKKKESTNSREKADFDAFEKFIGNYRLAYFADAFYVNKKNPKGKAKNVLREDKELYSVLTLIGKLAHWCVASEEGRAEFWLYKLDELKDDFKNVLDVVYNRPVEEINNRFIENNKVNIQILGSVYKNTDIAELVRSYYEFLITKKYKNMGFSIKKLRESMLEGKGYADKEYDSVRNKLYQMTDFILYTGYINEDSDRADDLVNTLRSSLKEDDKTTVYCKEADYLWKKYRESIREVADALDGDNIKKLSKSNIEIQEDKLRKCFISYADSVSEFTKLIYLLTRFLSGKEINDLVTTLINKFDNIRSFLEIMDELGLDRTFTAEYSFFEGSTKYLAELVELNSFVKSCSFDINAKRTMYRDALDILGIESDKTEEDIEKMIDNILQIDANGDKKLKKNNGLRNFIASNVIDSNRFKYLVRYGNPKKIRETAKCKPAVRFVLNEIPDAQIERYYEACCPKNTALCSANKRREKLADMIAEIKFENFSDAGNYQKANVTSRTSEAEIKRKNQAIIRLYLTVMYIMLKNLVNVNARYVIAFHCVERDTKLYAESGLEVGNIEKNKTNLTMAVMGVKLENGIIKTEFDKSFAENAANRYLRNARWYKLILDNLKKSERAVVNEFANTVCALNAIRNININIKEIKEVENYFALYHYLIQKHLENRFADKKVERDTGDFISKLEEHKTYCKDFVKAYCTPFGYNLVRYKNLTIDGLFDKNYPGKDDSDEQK
Test: crRNA (strand 1, pre-loaded); Mg2+; 40 mM Tris-HCl pH 7.5, 150 mM NaCl, 6 mM MgCl2, 1 mM DTT, 0.1% Tween-20, 0.2 mg/ml BSA; 25 C; 10 min per concentration, then washed
Conditions: tags: His6-TwinStrep-SUMO cleaved; N-terminal SNAP kept (SNAP-Surface 488); label: 3' end held by stalled T7 RNA polymerase
// boundary case: Kd equal to 40 nM maps to Not satisfied; strictly smaller maps to Satisfied

Below, 4 binders whose answers are already recorded.
- binder: "target 1 insC 3' of 17,insG 3' of 9 (mixed) RNA 1: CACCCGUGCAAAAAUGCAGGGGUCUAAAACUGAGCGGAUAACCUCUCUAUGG RNA 2: GGGAAUGGAUCCACAUCUACGAAUUCGUACCAUAGCAGAGGUUAGUCCGCUCACCGAGAUCGGAAGAGCACACGU"
  assigned_label: "Satisfied"
- binder: "target 2 MT 5'PFS UGA 3'PFS CGC (mixed) RNA 1: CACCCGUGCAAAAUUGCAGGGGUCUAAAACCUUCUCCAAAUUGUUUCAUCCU RNA 2: GGGAAUGGAUCCACAUCUACGAAUUCUGAAGGAUGAAACAAUUUGGAGAAGCGCAGAUCGGAAGAGCACACGU"
  assigned_label: "Satisfied"
- binder: "target 1 G5A,C7G (mixed) RNA 1: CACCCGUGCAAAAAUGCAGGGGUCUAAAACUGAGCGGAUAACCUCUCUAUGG RNA 2: GGGAAUGGAUCCACAUCUACGAAUUCGUACCAUAGAGAGGUUAUGCACUCACCGAGAUCGGAAGAGCACACGU"
  assigned_label: "Satisfied"
- binder: "target 2 MT 5'PFS GUU 3'PFS AAU (mixed) RNA 1: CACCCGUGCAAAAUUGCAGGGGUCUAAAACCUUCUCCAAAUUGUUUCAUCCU RNA 2: GGGAAUGGAUCCACAUCUACGAAUUCGUUAGGAUGAAACAAUUUGGAGAAGAAUAGAUCGGAAGAGCACACGU"
  assigned_label: "Satisfied"

Hi there! Is Kd for target 1 C7U,U19C (mixed) RNA 1: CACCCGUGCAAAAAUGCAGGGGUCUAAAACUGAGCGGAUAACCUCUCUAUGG RNA 2: GGGAAUGGAUCCACAUCUACGAAUUCGUACCACAGAGAGGUUAUUCGCUCACCGAGAUCGGAAGAGCACACGU below 40 nM, do you know? Satisfied

Hi there! Is Kd for target 1 insC 3' of 14,insG 3' of 2 (mixed) RNA 1: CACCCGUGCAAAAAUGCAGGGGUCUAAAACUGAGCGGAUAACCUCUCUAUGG RNA 2: GGGAAUGGAUCCACAUCUACGAAUUCGUACCAUAGAGACGGUUAUCCGCUCGACCGAGAUCGGAAGAGCACACGU below 40 nM, do you know? Not satisfied

Hi there! Is Kd for target 1 insG 3' of 20,insA 3' of 10 (mixed) RNA 1: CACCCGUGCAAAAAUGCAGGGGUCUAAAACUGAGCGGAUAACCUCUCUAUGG RNA 2: GGGAAUGGAUCCACAUCUACGAAUUCGUACCAGUAGAGAGGUUAAUCCGCUCACCGAGAUCGGAAGAGCACACGU below 40 nM, do you know? Not satisfied

Every entry's value here was drawn from paper PMC10786891.
